system: CEM-SS; experiment: Effective concentration required to inhibit the replication of HIV-1 by 50% in CEM-SS cells; assay type: functional, cell-based; conditions: Homo sapiens
outcome measure: pEC50
Lab note — pEC50 values are minus log10 of concentrations in M.

Solved entries (count: 2):
compound | pEC50
Cc1cn([C@H]2C[C@H](N=[N+]=[N-])[C@@H](COP(=O)(OCCSC(=O)C(C)(C)C)Oc3ccc(C[C@H](NC(=O)OC(C)(C)C)C(=O)N(C(=O)OC(C)(C)C)C(=O)OC(C)(C)C)cc3)O2)c(=O)[nH]c1=O (stereo partly drawn) | 7.31
CC(=O)N[C@@H](Cc1ccc(OP(=O)(OCCSC(=O)C(C)(C)C)OC[C@H]2O[C@@H](n3cc(C)c(=O)[nH]c3=O)C[C@@H]2N=[N+]=[N-])cc1)C(N)=O (stereo partly drawn) | 7.09

Problem: Requested read-out: pEC50. Entry: CC(=O)N(C(=O)OC(C)(C)C)[C@@H](Cc1ccc(OP(=O)(OCCSC(=O)C(C)(C)C)OC[C@H]2O[C@@H](n3cc(C)c(=O)[nH]c3=O)C[C@@H]2N=[N+]=[N-])cc1)C(=O)N(C(=O)OC(C)(C)C)C(=O)OC(C)(C)C (stereo partly drawn)
Result: 7.82
